Here, each record is paired with measured inhibition at 10 µM data.
Test system: MDA-MB-231/ATCC
Experiment: NCI-60 one-dose screen
Type: cell-based
Details: Homo sapiens, Breast Cancer panel, single dose 10^−5 M, read-out: Growth inhibition %
Method: The newly synthesized compounds were screened for their in vitro anticancer activity at the Developmental Therapeutic Program (DTP) of the National Cancer Institute (NCI). The screening involved a panel of 60 human tumor cell lines consisting of 9 tissue types to screen for potential anti-cancer agents. The primary screening of submitted compounds was performed by testing a single dose (10^−5 M) in the full NCI-60 panel. […]
Enter the number, and then the unit.

Study these solved cases before continuing.
COc1ccc2nc3ccccc3c(NCc3ccccc3)c2c1 [Compound 25, Benzyl-(2-methoxyacridin-9-yl)-amine] = 72.2%
Clc1ccccc1CNc1c2ccccc2nc2ccccc12 [Compound 11, Acridin-9-yl-(2-chlorobenzyl)-amine] = 71%
COc1ccc2nc3ccccc3c(NCc3ccc(Cl)cc3)c2c1 [Compound 29] = 75.7%

Query: What measured inhibition at 10 µM goes with c1csc(-c2ccc(CNc3c4ccccc4nc4ccccc34)cc2)c1 [Compound 24] ?
Reply: 61.7%

Query: What measured inhibition at 10 µM goes with COc1ccc(CNc2c3ccccc3nc3ccccc23)cc1 [Compound 7, Acridin-9-yl-(4-methoxybenzyl)-amine] ?
Reply: 52.6%

###

test system: HCT-116; assay: MTT cell proliferation assay, HCT-116; details: 10 µM, 72 h MTT, means ± SD
Simple rule here: % Inhibition at 10 µM less than 60% is TRUE, otherwise FALSE.

Fc1ccccc1CNc1c2ccccc2nc2ccccc12 = FALSE
c1csc(-c2ccc(CNc3c4ccccc4nc4ccccc34)cc2)c1 = TRUE
Cc1cccc(CNc2c3ccccc3nc3ccccc23)c1 = FALSE
Cc1ccc2nc3ccccc3c(NCc3ccccc3)c2c1 = FALSE

Please examine the following record next.
Query: # check: % Inhibition at 10 µM < 60% for c1ccc(CCNc2c3ccccc3nc3ccccc23)cc1
Reply: TRUE

###

system: MDA-MB-435; experiment: NCI-60 one-dose screen; assay type: cell-based; details: Homo sapiens; MDA-MB-435, Melanoma panel; single dose 10^−5 M; read-out: Growth inhibition %
test readout: inhibition at 10 µM (%)
Output spec: scalar in %, unitless text.

Study these solved cases before continuing.
c1coc(CNc2c3ccccc3nc3ccccc23)c1 [Compound 14, Acridin-9-yl-furan-2-ylmethyl-amine] = 12.4
COc1ccc2nc3ccccc3c(NCc3ccccc3)c2c1 [Compound 25, Benzyl-(2-methoxyacridin-9-yl)-amine] = 66.2
Cc1ccccc1CNc1c2ccccc2nc2ccccc12 [Compound 2, Acridin-9-yl-(2-methylbenzyl)-amine] = 76.1
c1ccc(CCNc2c3ccccc3nc3ccccc23)cc1 [Compound 23, Acridin-9-yl-phenethyl-amine] = 44.7
Cc1ccc2nc3ccccc3c(NCc3ccccc3)c2c1 [Compound 30, Benzyl-(2-methylacridin-9-yl)-amine] = 41.8

Query: What measured inhibition at 10 µM goes with COc1ccc2nc3ccccc3c(NCc3ccc(F)cc3)c2c1 [Compound 28] ?
Reply: 76.1

Query: What measured inhibition at 10 µM goes with c1ccc(CNc2c3ccccc3nc3ccccc23)cc1 [Compound 1, Acridin-9-yl-benzyl-amine] ?
Reply: 57.2

###

tested on: HCT-116; assay: MTT cell proliferation assay, HCT-116; settings: read-out: IC50 μM, 72 h MTT, means ± SD, three experiments
test readout: IC50 (µM)
Output spec: scalar in µM, unitless text.

c1csc(-c2ccc(CNc3c4ccccc4nc4ccccc34)cc2)c1 = 7

Query: What measured IC50 goes with c1coc(CNc2c3ccccc3nc3ccccc23)c1 ?
Reply: 8.41

Query: What measured IC50 goes with Fc1ccccc1CNc1c2ccccc2nc2ccccc12 ?
Reply: 3.05

Query: What measured IC50 goes with Cc1cccc(CNc2c3ccccc3nc3ccccc23)c1 ?
Reply: 4.6

###

system: MDA-MB-435; assay: NCI-60 one-dose screen; type: cell-based; conditions: Homo sapiens; MDA-MB-435, Melanoma panel; single dose 10^−5 M; read-out: Growth inhibition %
test readout: inhibition at 10 µM (%)
Output spec: scalar in %, unitless text.

Study these solved cases before continuing.
COc1ccc(CNc2c3ccccc3nc3ccccc23)cc1F = 92.4
COc1ccc(CNc2c3ccccc3nc3ccccc23)c(OC)c1 = 61.3
COc1ccc(CNc2c3ccccc3nc3ccc(OC)cc23)cc1 = 81
COc1ccccc1CNc1c2ccccc2nc2ccccc12 = 57.4
Fc1ccccc1CNc1c2ccccc2nc2ccccc12 = 43.8

Query: Give recorded inhibition at 10 µM with MDA-MB-435 for the following compound: COc1cccc(CNc2c3ccccc3nc3ccccc23)c1
Reply: 57

Query: Give recorded inhibition at 10 µM with MDA-MB-435 for the following compound: COc1ccc2nc3ccccc3c(NCc3ccc(Cl)cc3)c2c1
Reply: 75.9

Query: Give recorded inhibition at 10 µM with MDA-MB-435 for the following compound: Cc1cccc(CNc2c3ccccc3nc3ccccc23)c1
Reply: 70.9

###

Here, each record is paired with measured inhibition at 10 µM data.
System: NCI-H522
Assay: NCI-60 one-dose screen
Format: cell-based
Settings: Homo sapiens; NCI-H522, Non-small cell lung panel; single dose 10^−5 M; read-out: Growth inhibition %
Protocol: The newly synthesized compounds were screened for their in vitro anticancer activity at the Developmental Therapeutic Program (DTP) of the National Cancer Institute (NCI). The screening involved a panel of 60 human tumor cell lines consisting of 9 tissue types to screen for potential anti-cancer agents. The primary screening of submitted compounds was performed by testing a single dose (10^−5 M) in the full NCI-60 panel. […]
Output spec: scalar in %, unitless text.

Study these solved cases before continuing.
COc1ccc(CNc2c3ccccc3nc3ccccc23)cc1 = 47
Fc1cccc(CNc2c3ccccc3nc3ccccc23)c1 = 62.2

Query: What measured inhibition at 10 µM goes with COc1ccc(CNc2c3ccccc3nc3ccc(OC)cc23)cc1 ?
Reply: 73.8

Query: What measured inhibition at 10 µM goes with COc1ccc2nc3ccccc3c(NCc3ccc(F)cc3)c2c1 ?
Reply: 81.8

Query: What measured inhibition at 10 µM goes with COc1ccc2nc3ccccc3c(NCc3ccc(C)cc3)c2c1 ?
Reply: 73.6

Query: What measured inhibition at 10 µM goes with c1ccc(CNc2c3ccccc3nc3ccccc23)cc1 ?
Reply: 43.2

###

tested on: COLO 205; assay: NCI-60 one-dose screen; assay type: cell-based; settings: Homo sapiens; COLO 205, Colon Cancer panel; single dose 10^−5 M; read-out: Growth inhibition %
test readout: inhibition at 10 µM (%)
Output spec: scalar in %, unitless text.

Study these solved cases before continuing.
COc1ccc2nc3ccccc3c(NCc3ccccc3)c2c1 [Compound 25, Benzyl-(2-methoxyacridin-9-yl)-amine] = 119
COc1ccc(CNc2c3ccccc3nc3ccccc23)cc1 [Compound 7, Acridin-9-yl-(4-methoxybenzyl)-amine] = 88.4
COc1ccc(CNc2c3ccccc3nc3ccc(OC)cc23)cc1 [Compound 27] = 151

We next turn to a different compound, shown below.
Query: What measured inhibition at 10 µM goes with COc1cccc(CNc2c3ccccc3nc3ccccc23)c1 [Compound 6, Acridin-9-yl-(3-methoxybenzyl)-amine] ?
Reply: 90.4

###

test system: HS 578T; assay: NCI-60 one-dose screen; type: cell-based; settings: Homo sapiens, Breast Cancer panel, single dose 10^−5 M, read-out: Growth inhibition %
inhibition at 10 µM below 50% gives -1; inhibition at 10 µM at or above it gives 1.

COc1ccc2nc3ccccc3c(NCc3ccc(F)cc3)c2c1 = 1
COc1ccc2nc3ccccc3c(NCc3ccc(C)cc3)c2c1 = 1
Clc1ccc(CNc2c3ccccc3nc3ccccc23)cc1 = -1
COc1ccc(CNc2c3ccccc3nc3ccccc23)cc1F = 1
COc1ccc(CNc2c3ccccc3nc3ccccc23)c(OC)c1 = -1
Fc1cccc(CNc2c3ccccc3nc3ccccc23)c1 = -1
c1csc(-c2ccc(CNc3c4ccccc4nc4ccccc34)cc2)c1 = -1
COc1ccccc1CNc1c2ccccc2nc2ccccc12 = -1
Clc1cccc(CNc2c3ccccc3nc3ccccc23)c1 = -1
c1coc(CNc2c3ccccc3nc3ccccc23)c1 = -1

Query: Form field: inhibition at 10 µM at least 50%? Entry: COc1ccc(CNc2c3ccccc3nc3ccccc23)cc1
Reply: -1

Query: Form field: inhibition at 10 µM at least 50%? Entry: COc1ccc(CNc2c3ccccc3nc3ccc(OC)cc23)cc1
Reply: 1

###

test system: HCT-116; test: MTT cell proliferation assay, HCT-116; conditions: read-out: IC50 μM, 72 h MTT, means ± SD, three experiments
test readout: IC50 (µM)
Output spec: scalar in µM, unitless text.

Study these solved cases before continuing.
Cc1ccccc1CNc1c2ccccc2nc2ccccc12 [Compound 2, Acridin-9-yl-(2-methylbenzyl)-amine] = 4.01
COc1ccccc1CNc1c2ccccc2nc2ccccc12 [Compound 5, Acridin-9-yl-(2-methoxybenzyl)-amine] = 6.83
Fc1cccc(CNc2c3ccccc3nc3ccccc23)c1 [Compound 9, Acridin-9-yl-(3-fluorobenzyl)-amine] = 7.3
Fc1ccc(CNc2c3ccccc3nc3ccccc23)cc1 [Compound 10, Acridin-9-yl-(4-fluorobenzyl)-amine] = 2.75

We next turn to a different compound, shown below.
Query: Give recorded IC50 with HCT-116 for the following compound: Fc1cccc(CNc2c3ccccc3nc3ccccc23)c1F [Compound 20, Acridin-9-yl-(2,3-difluorobenzyl)-amine]
Reply: 4.96
